Biological target: TLR10 (Homo sapiens)
Sequence (Q9BXR5 20-576): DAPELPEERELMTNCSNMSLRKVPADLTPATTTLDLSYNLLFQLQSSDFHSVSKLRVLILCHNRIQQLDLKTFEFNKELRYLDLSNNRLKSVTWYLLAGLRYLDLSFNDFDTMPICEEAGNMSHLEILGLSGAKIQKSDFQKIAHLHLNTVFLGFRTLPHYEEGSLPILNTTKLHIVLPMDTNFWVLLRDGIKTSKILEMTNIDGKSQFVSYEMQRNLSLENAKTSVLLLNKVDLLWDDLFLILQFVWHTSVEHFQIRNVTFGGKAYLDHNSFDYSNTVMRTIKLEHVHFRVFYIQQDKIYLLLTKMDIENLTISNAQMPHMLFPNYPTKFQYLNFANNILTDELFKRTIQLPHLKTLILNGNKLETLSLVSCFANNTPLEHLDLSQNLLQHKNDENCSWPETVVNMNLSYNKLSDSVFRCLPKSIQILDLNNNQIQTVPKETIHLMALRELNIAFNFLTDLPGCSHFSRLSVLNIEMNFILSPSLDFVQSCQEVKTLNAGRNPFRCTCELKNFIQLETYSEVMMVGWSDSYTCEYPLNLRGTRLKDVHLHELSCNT
Assay: mRNA display affinity selection against TLR10, NGS abundance
Format: binding
Design: Chimera protein (extracellular domain, amino acid 20-576;); Fc (chimera); purchased R&D system #6619-TR-050
Details: TLR10 selection pulldown (+); Top100 selection hits, NGS
attributeMeasured: Library fraction
Give your answer as a number; write no unit.

// field: Library fraction; key: STKNQYGGWSPA ; value = 0.00034

New cases:
The recorded Library fraction for entry SLETNSVVWI equals 0.00021

In plain terms, RIETARLVIL has a documented Library fraction of 0.00074

For SVIFNLLRQVAY the sequence record lists Library fraction as 0.00017

Consider WCGATLYSSIS . Its measured Library fraction is 0.00024

Library fraction recorded for this sequence, AKLIYRTQGIMG , is 0.00211

The reported Library fraction of the sequence SILFPHQQKLLF was 0.00044

---

Target: IRAK4 (Homo sapiens, UniProt Q9NWZ3)
Sequence (Q9NWZ3 1-460): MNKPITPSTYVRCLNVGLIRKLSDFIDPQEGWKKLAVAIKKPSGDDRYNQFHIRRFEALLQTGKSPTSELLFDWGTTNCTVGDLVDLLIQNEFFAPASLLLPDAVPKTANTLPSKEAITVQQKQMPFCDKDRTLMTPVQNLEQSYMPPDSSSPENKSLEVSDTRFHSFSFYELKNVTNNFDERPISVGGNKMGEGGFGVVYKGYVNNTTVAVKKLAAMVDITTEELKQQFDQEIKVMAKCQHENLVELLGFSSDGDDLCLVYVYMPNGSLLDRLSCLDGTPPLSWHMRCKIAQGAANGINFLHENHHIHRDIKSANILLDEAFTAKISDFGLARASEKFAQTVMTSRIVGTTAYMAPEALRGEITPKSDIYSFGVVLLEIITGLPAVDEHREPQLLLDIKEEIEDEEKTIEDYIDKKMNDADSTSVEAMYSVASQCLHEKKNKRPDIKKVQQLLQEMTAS
Assay: mRNA display affinity selection against IRAK4, NGS abundance
Format: binding
Set-up: acids 1-460; NP_057207.2) was purchased from Carna Biosciences; purchased Carna Biosciences (Kobe, Japan)
Conditions: IRAK4 selection pulldown (-); Top100 selection hits, NGS
attributeMeasured: Library fraction

// solved cases for Library fraction follow
Query CQRIGRRNYS yields Library fraction of 0.0001

Short answer for SVLWKRRIAK : Library fraction was 0.011

With those in mind, consider the next sequence.
GET /value?item= SLLWKRRCYN &field=Library fraction returns 0.00172
